The reported measurements were obtained from the supplement of paper PMC10065799.

# TESTED_TARGET: Grb2 SH2 (UniProt P62993)
# Sequence (P62993 whole entry, looked up, the tested form may be a part): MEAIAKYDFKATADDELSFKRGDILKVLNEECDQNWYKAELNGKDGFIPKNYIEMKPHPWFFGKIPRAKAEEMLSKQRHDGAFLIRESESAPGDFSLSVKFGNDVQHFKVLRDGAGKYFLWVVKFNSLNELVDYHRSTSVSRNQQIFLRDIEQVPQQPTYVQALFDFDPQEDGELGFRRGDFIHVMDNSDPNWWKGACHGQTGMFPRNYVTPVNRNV
# PROTOCOL_SUMMARY: SH2 binding enrichment of the phosphorylated peptide, bacterial display (enrichment ratio); higher = better substrate or ligand; peptides without Tyr show the background;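 note: peptide library displayed on the E. coli surface as eCPX fusions, selected cells deep-sequenced, score is each peptide's frequency after selection divided by its frequency in the input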
Classify as follows. Reported SH2 binding enrichment greater than or equal to 0.9: 1.0. Reported SH2 binding enrichment below: 0.0.

Query: Would you say HAKKNYGNSSV [HDX_Y197] shows SH2 binding enrichment at minimum 0.9?
Reply: 1.0

Query: Now this one: YMRGMYFRMKD [PLA2G6_Y541]
Reply: 1.0

Query: Now this one: PIPAAYNKFDQ [CDC73_Y290_R292K_YF]
Reply: 1.0

Query: Now this one: KERNQYGGVMV [MMP21_Y347_E349G]
Reply: 0.0

Query: Now this one: DVSVVYSEVKT [FCRL4_Y493]
Reply: 0.0

Query: Now this one: TNYCLYLRSLE [MTM1_Y71_R69C]
Reply: 1.0

Query: Now this one: TFGQVYKGPHV [TNIK_Y40_R43P_YF]
Reply: 0.0

Query: Now this one: FEREQYADRTR [RBM4_Y355_A359T_YF]
Reply: 0.0

Query: Now this one: ERDYTYEELLN [EIF2S2_Y176]
Reply: 0.0

Query: Now this one: IRSGIYFKPES [L2HGDH_Y102_H98R_YF]
Reply: 0.0

Query: Now this one: KSRQIYDAFIM [GRK3_Y109_R104K_YF]
Reply: 0.0

Query: Now this one: IMICAYLLHRG [PTEN_Y138_V133I]
Reply: 1.0

Query: Now this one: LLVVVYKFRCF [PSEN1_Y154_L153V_YF]
Reply: 1.0

Query: Now this one: HHIDFYKETTN [FGFR1_Y654_K656E_YF]
Reply: 1.0

Query: Now this one: PMFHSYVSLPF [PLXNA2_Y293_K289M]
Reply: 0.0

Query: Now this one: PDSVDYRKKGF [CTSK_Y121_YF]
Reply: 0.0

Query: Now this one: AAAAMYTFLPD [MYORG_Y36]
Reply: 1.0

Query: Now this one: MKNQKYGRIIM [HSD17B4_Y143_K140N]
Reply: 1.0

Query: Now this one: KGELRYMHSRV [ABCD1_Y281]
Reply: 1.0

Query: Now this one: SHMVDYQPYRK [TEX37_Y25]
Reply: 0.0

Query: Now this one: KFMVGYEMLAQ [GALT_Y339]
Reply: 1.0

Query: Now this one: YLENYYDLEKD [MMP3_Y42_K45E]
Reply: 0.0

Query: Now this one: WCKPLYFSCAV [MMS22L_Y28_P27L]
Reply: 1.0

Query: Now this one: TKDTFYKQPMV [GBA_Y451_F456V]
Reply: 0.0

Query: Now this one: TETGRYEILTE
Reply: 0.0

Query: Now this one: GGTTMYPGIAD [ACTC1_Y308]
Reply: 0.0

Query: Now this one: RGESFYQDRMN [RARS_Y338]
Reply: 0.0
